Assay: Oral bioavailability in beagle dog at 30 mg/kg
Type: ADME, organism-based, Canis lupus familiaris
Settings: in vivo
Value Kind: bioavailability

Data request: Fill in the blank: the reported bioavailability of N#Cc1cc(NC(=O)[C@H]2c3ccccc3C(=O)N(CC(F)(F)F)[C@@H]2c2cccnc2)ccc1F is ____.
Data returned: > 30%

----------
Assay: Oral bioavailability in mouse at 15 mg/kg
Type: ADME, organism-based
Conditions: in vivo
Value Kind: bioavailability

Data request: Fill in the blank: the reported bioavailability of N#Cc1cc(NC(=O)[C@H]2c3ccccc3C(=O)N(CC(F)(F)F)[C@@H]2c2cccnc2)ccc1F is ____.
Data returned: > 30%

----------
Test system: hERG
Assay: Selectivity index, ratio of IC50 for human ERG to IC50 for Plasmodium falciparum NF54
Assay type: toxicity
Conditions: read-out: Ratio IC50
Value Kind: selectivity ratio

Data request: Fill in the blank: the reported selectivity ratio of Cc1nc(Nc2ncc(N3CCN(C)[C@H](C)C3)c(Nc3cc(C)n(C)n3)n2)cc(C2CC2)c1F [SUTIDIAZINE] is ____.
Data returned: > 1000

----------
Assay: Oral bioavailability in rat
Assay type: ADME, organism-based
Conditions: in vivo
Value Kind: bioavailability (%)
Answers are plain numbers, in %.

Data request: Fill in the blank: the reported bioavailability of Cc1nc(Nc2ncc(N3CCN(C)[C@H](C)C3)c(Nc3cc(C)n(C)n3)n2)cc(C2CC2)c1F is ____.
Data returned: 80

----------
Assay: Oral bioavailability in CD1 mouse at 10 mg/kg
Type: ADME, organism-based
Details: in vivo
Value Kind: bioavailability (%)
One number for each entry, in %.

Data request: Fill in the blank: the reported bioavailability of COc1ccc(NC(=O)N2CCCCN3[C@H](CN(C)C)[C@H](c4ccc(C#Cc5ccccc5)cc4)[C@@H]3C2)cc1 is ____.
Data returned: 80

----------
Tested on: acetylcholinesterase (AChE)
Test: Selectivity index, ratio of IC50 for human AchE to IC50 for Plasmodium falciparum NF54
Type: toxicity
Settings: read-out: Ratio IC50
Value Kind: selectivity ratio

Data request: Fill in the blank: the reported selectivity ratio of Cc1nc(Nc2ncc(N3CCN(C)[C@H](C)C3)c(Nc3cc(C)n(C)n3)n2)cc(C2CC2)c1F is ____.
Data returned: > 1000

----------
Assay: Oral bioavailability in Sprague-Dawley rat at 10 mg/kg administered via gavage
Assay type: ADME, organism-based
Settings: in vivo
Value Kind: bioavailability

Data request: Fill in the blank: the reported bioavailability of CC1(C)N=C(N)N=C(N)N1OCCCOc1cc(Cl)c(Cl)cc1Cl is ____.
Data returned: < 1%

----------
Test: Oral bioavailability in C57BL/6 mouse at 100 mg/kg
Format: ADME, organism-based
Conditions: in vivo
Value Kind: bioavailability

Data request: Fill in the blank: the reported bioavailability of COc1ccc2c(c1)CC[C@@H]1[C@@H]2CC[C@]2(C)[C@H](NCc3cc4ccccc4cc3O)CC[C@@H]12 is ____.
Data returned: < 5%
